Numbers sourced from ChEMBL document CHEMBL5584277.

This section presents compounds with their documented Ki values.
- experimental target: WDR5-MYC (Homo sapiens, UniProt P61964)
- assay explanation: Disruption of WDR5/5-FAM-labelled MYC (261 to 267 residues)(unknown origin) interaction incubated for 120 mins by FP assay

| cpd smiles | unit label | Ki |
| --- | --- | --- |
| Cc1ccc(-c2nc(N)sc2SC#N)cc1 | nM | 3000 |
| N#CSc1sc(N)nc1-c1ccc(Br)cc1 | nM | 900 |
| CC(C)C(=O)Nc1nc(-c2ccc(Cl)cc2)c(SC#N)s1 | nM | 1600 |
| N#CSc1sc(N)nc1-c1ccccc1Br | nM | 3000 |
| COc1ccc(-c2nc(N)sc2SC#N)cc1 | nM | 2900 |
| N#CSc1sc(N)nc1-c1cccc([N+](=O)[O-])c1 | nM | 4100 |
